system: sugarcane; assay: Sugarcane ripening field studies, florpyrauxifen-benzyl and haloxyfop-P-methyl; type: in vivo; settings: 45 days after application; rate g ai/ha: haloxyfop-P-methyl 27, florpyrauxifen-benzyl 2.2, mixture 27 + 2.2, sulfometuron 15, trinexapac 250; untreated 4.2
# reported Gain POL; entries follow
propertyLabel: Gain POL (%)

molecule | propertyLabel | unitSpec | reading
COC(=O)[C@@H](C)Oc1ccc(Oc2ncc(C(F)(F)F)cc2Cl)cc1 | Gain POL | % | 4.4
COc1c(Cl)ccc(-c2nc(C(=O)OCc3ccccc3)c(Cl)c(N)c2F)c1F | Gain POL | % | 4.9
COC(=O)c1ccccc1S(=O)(=O)NC(=O)Nc1nc(C)cc(C)n1 | Gain POL | % | 3.6
CCOC(=O)C1CC(=O)C(=C(O)C2CC2)C(=O)C1 (stereo not shown) | Gain POL | % | 3.8

---

tested on: sugarcane; assay: Sugarcane ripening field studies, halauxifen-methyl plus haloxyfop-P-methyl; type: in vivo; details: six field studies; 30 days after application; rate g ai/ha: halauxifen-methyl 2.16, mixture 27 + 2.16, haloxyfop-P-methyl 27, sulfometuron 15, trinexapac 250; untreated 2.7
propertyLabel: Gain POL (%)

compound | targetOrTestSystem | unitSpec | reading
COC(=O)c1ccccc1S(=O)(=O)NC(=O)Nc1nc(C)cc(C)n1 | sugarcane | % | 1.9
COC(=O)[C@@H](C)Oc1ccc(Oc2ncc(C(F)(F)F)cc2Cl)cc1 | sugarcane | % | 2.9
COC(=O)c1nc(-c2ccc(Cl)c(OC)c2F)cc(N)c1Cl | sugarcane | % | 3
CCOC(=O)C1CC(=O)C(=C(O)C2CC2)C(=O)C1 (stereo not shown) | sugarcane | % | 2.5

---

# reported Gain Fiber; entries follow
tested on: sugarcane; assay: Sugarcane ripening field studies, florpyrauxifen-benzyl and haloxyfop-P-methyl; type: in vivo; settings: 45 days after application; rate g ai/ha: haloxyfop-P-methyl 27, florpyrauxifen-benzyl 2.2, mixture 27 + 2.2, sulfometuron 15, trinexapac 250; untreated 1.2
propertyLabel: Gain Fiber (%)

compound | unitSpec | reading
COC(=O)[C@@H](C)Oc1ccc(Oc2ncc(C(F)(F)F)cc2Cl)cc1 [Haloxyfop-P-methyl, haloxyfop-P-methyl] | % | 0.1
COc1c(Cl)ccc(-c2nc(C(=O)OCc3ccccc3)c(Cl)c(N)c2F)c1F [Florpyrauxifen-benzyl, florpyrauxifen-benzyl] | % | 1.5
COC(=O)c1ccccc1S(=O)(=O)NC(=O)Nc1nc(C)cc(C)n1 [Sulfometuron, sulfometuron-methyl] | % | 0.6
CCOC(=O)C1CC(=O)C(=C(O)C2CC2)C(=O)C1 (stereo not shown) [Trinexapac, trinexapac-ethyl] | % | 0.8

---

test system: sugarcane; test: Sugarcane ripening field studies, halauxifen-methyl plus haloxyfop-P-methyl; type: in vivo; details: six field studies; 30 days after application; rate g ai/ha: halauxifen-methyl 2.16, mixture 27 + 2.16, haloxyfop-P-methyl 27, sulfometuron 15, trinexapac 250; untreated 6.8
# reported Gain Purity; entries follow
propertyLabel: Gain Purity

compound | propertyLabel | reading
COC(=O)c1nc(-c2ccc(Cl)c(OC)c2F)cc(N)c1Cl [Halauxifen-methyl, halauxifen-methyl] | Gain Purity | 7.1%
COC(=O)c1ccccc1S(=O)(=O)NC(=O)Nc1nc(C)cc(C)n1 [Sulfometuron, sulfometuron-methyl] | Gain Purity | 1.9%
COC(=O)[C@@H](C)Oc1ccc(Oc2ncc(C(F)(F)F)cc2Cl)cc1 [Haloxyfop-P-methyl, haloxyfop-P-methyl] | Gain Purity | 6.6%
CCOC(=O)C1CC(=O)C(=C(O)C2CC2)C(=O)C1 (stereo not shown) [Trinexapac, trinexapac-ethyl] | Gain Purity | 5.8%
